Taken from the Human Domainome abundance scans (Beltran et al. 2025).

B1: Calcium-binding protein 2, residues 155 to 219; numbered along this chain, Q9NPB3 (parent)
chain: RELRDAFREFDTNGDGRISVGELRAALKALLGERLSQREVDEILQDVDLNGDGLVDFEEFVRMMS

- Variants of: B1
- METHOD_SUMMARY: abundance fitness (aPCA) (normalised: wild type 0, dead -1); higher = more abundant; growth selection in yeast, the domain comes from the species named
- SETTINGS: Homo sapiens
Please provide measured abundance fitness for the entries that follow.

Worked cases, abundance fitness given:
INSERT INTO measurements (variant_id, assay_metric, value_reported) VALUES
  ('M64S', 'abundance fitness', 0.174),
  ('R17Q', 'abundance fitness', -0.193),
  ('F60T', 'abundance fitness', -0.306);

Go through the items and report each one's abundance fitness.
1. S36I
2. F60R
3. D5F
4. G51K
5. E59V
6. G51M
7. G14P

1: 0; 2: -0.798; 3: -0.066; 4: 0.014; 5: 0.083; 6: 0.047; 7: -0.621

Go through the items and report each one's abundance fitness.
1. F7H
2. D5Y
3. V47Y
4. I18R
5. D5E
6. V61L

-1.18
-0.451
-0.01
-0.808
-0.054
-0.012

Go through the items and report each one's abundance fitness.
1. A26V
2. S36E
3. G51T
4. F60V
5. E2G

[-0.095, 0.024, 0.006, -0.278, -0.15]

Go through the items and report each one's abundance fitness.
1. L23A
2. D46L
3. V40M

0.118
-0.326
0.048

Go through the items and report each one's abundance fitness.
1. V61W
2. R38I
3. M63R
4. G51V
5. V55W
6. E22W
7. L54H
8. A25M

1. -0.114
2. 0.03
3. -0.404
4. 0.003
5. -0.192
6. -0.837
7. -0.292
8. 0.019

Go through the items and report each one's abundance fitness.
1. I43P
2. F10P
3. R4G
4. R1M
5. F7T

-0.032
-0.864
-0.255
0.206
-0.713

Go through the items and report each one's abundance fitness.
1. M63N
2. N13R
3. A6T
4. T12R
5. R8N
6. R4M
7. A29I

1: 0.057; 2: -0.477; 3: 0.173; 4: -0.201; 5: -0.023; 6: -0.144; 7: -0.204

Go through the items and report each one's abundance fitness.
1. N13M
2. D48W

1: -0.797; 2: -0.103
